Target: T1, human DLL4 expressed on cells (CHO-hDLL4; HEK293-hDLL4) (human, UniProt Q9NR61 27-685)
T1 construct: full length human DLL4 overexpressed on CHO cells (FMAT, FACS) or HEK293 cells (reporter assay)
Assay: competition FMAT, labelled hNotch1-Fc on CHO-hDLL4 cells
Entries and their measured IC50 follow.

| BINDER | READOUT_UNITS | IC50 |
| --- | --- | --- |
| DLLBII019 (VHH, not shown: small tags and cut ends) VHH: EVQLVESGGGLVQPGGSLRLSCAASGFTFGSYDMSWVRRSPGKGPEWVSSINSGGGSTYYADYVKGRFTISRDNAKNTLYLQMNSLRPEDTAVYYCAADRYIWARQGEYWGAYEYDYWGQGTLVTVSS | nM | 3 |
| DLLBII017 (VHH, not shown: small tags and cut ends) VHH: EVQLVESGGGLVQPGGSLRLSCAASGRTFSSYAMAWYRQAPGKEREYVAAIRWSGGTAYYADSVQGRFTISRDNAKNTVYLQMNSLRPEDTAVYYCANRAPDTRLAPYEYDHWGQGTLVTVSS | nM | 12.1 |

Data credit: patent US20140120095A1
